Assay: Animal Experiment: serum concentration and bioavailability of OMP in rabbits (I.V., oral, rectum)
Type: in vivo, albino rabbits
Conditions: rabbit, in vivo, po, 10 mg/kg, serum concentration
Measure: concentration at 5 h
# answer = value followed by unit

Item COc1ccc2[nH]c([S+]([O-])Cc3ncc(C)c(OC)c3C)nc2c1 (stereo not shown) [OMP, Omeprazole] has what recorded concentration at 5 h?
527 ng/mL

----------
Assay: Animal Experiment: serum concentration and bioavailability of OMP in rabbits (I.V., oral, rectum)
Format: in vivo, albino rabbits
Settings: rabbit, serum, po, 10 mg/kg, oral, 20 mg OMP per 2 kg, 3 hr, average; read-out: serum concentration, average
Measure: concentration at 3 h (ng/mL)
Answers are plain numbers, in ng/mL.

Would you kindly share the measured concentration at 3 h for COc1ccc2[nH]c([S+]([O-])Cc3ncc(C)c(OC)c3C)nc2c1 (stereo not shown) [OMP, Omeprazole] ?
413

Value source: patent US5219870A
